- study target: human cathepsin S (CatS) (Homo sapiens (Human))
- Sequence (P25774 115-331): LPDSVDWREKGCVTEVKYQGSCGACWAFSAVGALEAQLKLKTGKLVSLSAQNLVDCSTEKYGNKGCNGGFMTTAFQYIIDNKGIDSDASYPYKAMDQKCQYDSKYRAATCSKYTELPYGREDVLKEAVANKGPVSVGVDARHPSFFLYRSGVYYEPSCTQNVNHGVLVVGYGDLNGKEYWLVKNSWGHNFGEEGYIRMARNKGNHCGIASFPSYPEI
- assay protocol: CatS functional enzyme assay
- Format: biochemical
- experimental setup: ratio Ki(hCatS)/Ki(hCatK)
Each entry below carries its reported Selectivity Ki(hCatS)/Ki(hCatK).
Just the number, please, no unit after it.

compound: O=C(N[C@H](C(=O)N1C[C@H](Cl)[C@H]2OCC(=O)[C@H]21)C1CCCCC1)c1ccc(-c2ccc(F)nn2)s1 [Example 38]
reported: 10.7

compound: CCc1cnnc(-c2ccc(C(=O)N[C@H](C(=O)N3C[C@H](Cl)[C@H]4OCC(=O)[C@H]43)C3CCCCC3)s2)c1 [Example 73]
reported: 0.9

Please look at the following compound next.
// query What Selectivity Ki(hCatS)/Ki(hCatK) value was documented for this compound, Cc1cc(-c2ccc(C(=O)N[C@H](C(=O)N3C[C@H](Cl)[C@H]4OCC(=O)[C@H]43)C3CCCCC3)s2)ccn1 [Example 33] ?
// result 21.5

###

Each entry below carries its reported inhibition at 31.6 µM.
- study target: human cathepsin L (CatL) (Homo sapiens (Human), UniProt P07711)
- Sequence (P07711 114-333): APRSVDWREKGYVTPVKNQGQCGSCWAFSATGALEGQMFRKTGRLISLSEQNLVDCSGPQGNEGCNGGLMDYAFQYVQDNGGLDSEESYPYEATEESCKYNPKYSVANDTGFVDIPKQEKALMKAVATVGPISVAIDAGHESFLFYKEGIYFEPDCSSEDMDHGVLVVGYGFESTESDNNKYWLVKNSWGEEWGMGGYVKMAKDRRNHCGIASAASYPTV
- assay protocol: CatL functional enzyme assay
- Format: biochemical
- experimental setup: read-out: hCatL, inhibition [%] at 31.6 μM
Report the value in % with no unit label.

Below, each entry is followed by its recorded inhibition at 31.6 µM result.
compound: C[S+]([O-])c1cnnc(-c2ccc(C(=O)N[C@H](C(=O)N3C[C@H](Cl)[C@H]4OCC(=O)[C@H]43)C3CCCCC3)s2)c1 (stereo partly drawn) [Example 76]
inhibition at 31.6 µM / %: 19
--
compound: O=C(N[C@H](C(=O)N1C[C@H](Cl)[C@H]2OCC(=O)[C@H]21)C1CCCCC1)c1ccc(-c2ccnc(C3CC3)c2)s1 [Example 66]
inhibition at 31.6 µM / %: 3
--
compound: Cc1ccc(-c2cnc(C(=O)N[C@H](C(=O)N3C[C@H](Cl)[C@H]4OCC(=O)[C@H]43)C3CCCCC3)s2)cn1 [Example 42]
inhibition at 31.6 µM / %: 18

// query What inhibition at 31.6 µM value was documented for this compound, Cc1nccc(-c2ccc(C(=O)N[C@H](C(=O)N3C[C@H](Cl)[C@H]4OCC(=O)[C@H]43)C3CCCCC3)s2)n1 [Example 29] ?
// result 6

// query What inhibition at 31.6 µM value was documented for this compound, O=C(N[C@H](C(=O)N1C[C@H](Cl)[C@H]2OCC(=O)[C@H]21)C1CCCCC1)c1ccc(-c2cnccn2)o1 [Example 25] ?
// result 20

// query What inhibition at 31.6 µM value was documented for this compound, Cc1ncc(-c2ccc(C(=O)N[C@H](C(=O)N3C[C@H](Cl)[C@H]4OCC(=O)[C@H]43)C3CCCCC3)s2)cn1 [Example 30] ?
// result 28

###

- Test system: Caco-2 cells
- assay protocol: Caco 2 permeability assay
- Type: in vitro ADME, human
- experimental setup: Caco-2, verbal assessment
endpoint: efflux ratio (ER) (in words)

structure notation: O=C(N[C@H](C(=O)N1C[C@H](Cl)[C@H]2OCC(=O)[C@H]21)C1CCCCC1)c1ccc(-c2ccnnc2)s1
reported: intermediate/low
//
structure notation: O=C(N[C@H](C(=O)N1C[C@H](Cl)[C@H]2OCC(=O)[C@H]21)C1CCCCC1)c1ccc(-c2ccncn2)s1
reported: intermediate/low
//
structure notation: O=C(N[C@H](C(=O)N1C[C@H](Cl)[C@H]2OCC(=O)[C@H]21)C1CCCCC1)c1ccc(-c2cncnc2)s1
reported: intermediate/low
